Attribute: intrinsic clearance, human liver microsomes
Reply numerically in mL/min/kg, unit not repeated.

Examples with answers:
{"columns": ["given smiles", "observed"],
 "data": [
  ["COc1cccc(CC(=O)Nc2ccc3nc(C)sc3c2)c1", 33.7],
  ["COCC1(CNS(=O)(=O)c2ccccc2)CCC1", 30.7],
  ["Cn1ncc2cc(-c3ccnc4[nH]ccc34)ccc21", 117],
  ["CC(=O)N1CCN(c2c(Cl)cccc2NC(=O)COc2ccc(C(C)C)cc2)CC1", 134],
  ["CC1(C)CC[C@]2(NC(=O)C(C)(F)F)CC[C@]3(C)[C@H](C(=O)C=C4[C@@]5(C)C=C(C#N)C(=O)C(C)(C)[C@@H]5CC[C@]43C)[C@@H]2C1", 76.7]
]}

// recorded intrinsic clearance, human liver microsomes for `O=C(NCCN1C(=O)CSC1=O)c1cc(Cl)c2c(c1)OCO2` : 13

// recorded intrinsic clearance, human liver microsomes for `COc1ccc(Cc2ncnn2-c2ccc3c(c2)OCO3)c(OC)c1` : 131

// recorded intrinsic clearance, human liver microsomes for `CN(C)c1ccc2c(c1)OCCN2C(=O)NCc1cccnc1` : 23.6

// recorded intrinsic clearance, human liver microsomes for `Cc1cc(C)nc(-n2nc(C)c(CC(=O)NC3CCCCCC3)c2C)n1` : 43.9

// recorded intrinsic clearance, human liver microsomes for `NCc1ccc(Oc2ccccc2)nc1` : 20.7

// recorded intrinsic clearance, human liver microsomes for `Cc1ccc(F)c(N(C#N)Cc2nccn2C(F)F)c1` : 19.9

// recorded intrinsic clearance, human liver microsomes for `O=C(CCc1cc2ccccc2o1)N1CCN(c2cnccn2)CC1` : 69.6
